target: T1, cyno activated protein C (cyno (monkey)); assay: SPR (Biacore), 1:1 binding model
T1 construct: also called cyno aPC; cyno APC
assayReadout: kon (M⁻¹ s⁻¹)
One number for each entry, in M⁻¹ s⁻¹.

binder: Hu1573-16 (antibody, V domains shown, Humanized IgG, human gamma 1 / kappa constant regions by vectors pCP-hCg1 and pCP-hck; also called H1573VH.1F + H1573Vk.2A) VH: EVQLVESGGGLVQPGGSLRLSCAASGFTFSNYYLNWVRQAPGKGLEWVADIRLKSNNYEKHYAESVKGRFTISRDDSKSSVYLQMNSLKTEDTAVYYCIREGDYFDYWGQGTTVTVSS VL: DIVLTQTPLSLSVTPGQPASISCRASESVDSFGATFMHWYLQKPGQPPQLLIYLASNLESGVPDRFSGSGSGTDFTLKISRVEAEDVGVYYCQQNNEDPYTFGQGTKLEIKR
assayReadout: kon
observed: 236000

**Q:** Which kon value belongs to Hu1573-17 (antibody, V domains shown, Humanized IgG, human gamma 1 / kappa constant regions by vectors pCP-hCg1 and pCP-hck; also called H1573VH.1F + H1573Vk.2B) VH: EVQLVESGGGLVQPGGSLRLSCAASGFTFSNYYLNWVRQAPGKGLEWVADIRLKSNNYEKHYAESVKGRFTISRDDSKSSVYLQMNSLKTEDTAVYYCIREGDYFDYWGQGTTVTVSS VL: DIVMTQTPLSLSVTPGQPASISCRASESVDSFGATFMHWYLQKPGQPPQLLIYLASNLESGVPDRFSGSGSRTDFTLKISRVEAEDVGVYYCQQNNEDPYTFGQGTKLEIKR ?
**A:** 269000
